Reference source for all entries: patent US20070232601A1

Target: hα4 and β1 integrins (VLA-4) (Homo sapiens, UniProt P05556+P13612)
Sequence (P13612 34-1032): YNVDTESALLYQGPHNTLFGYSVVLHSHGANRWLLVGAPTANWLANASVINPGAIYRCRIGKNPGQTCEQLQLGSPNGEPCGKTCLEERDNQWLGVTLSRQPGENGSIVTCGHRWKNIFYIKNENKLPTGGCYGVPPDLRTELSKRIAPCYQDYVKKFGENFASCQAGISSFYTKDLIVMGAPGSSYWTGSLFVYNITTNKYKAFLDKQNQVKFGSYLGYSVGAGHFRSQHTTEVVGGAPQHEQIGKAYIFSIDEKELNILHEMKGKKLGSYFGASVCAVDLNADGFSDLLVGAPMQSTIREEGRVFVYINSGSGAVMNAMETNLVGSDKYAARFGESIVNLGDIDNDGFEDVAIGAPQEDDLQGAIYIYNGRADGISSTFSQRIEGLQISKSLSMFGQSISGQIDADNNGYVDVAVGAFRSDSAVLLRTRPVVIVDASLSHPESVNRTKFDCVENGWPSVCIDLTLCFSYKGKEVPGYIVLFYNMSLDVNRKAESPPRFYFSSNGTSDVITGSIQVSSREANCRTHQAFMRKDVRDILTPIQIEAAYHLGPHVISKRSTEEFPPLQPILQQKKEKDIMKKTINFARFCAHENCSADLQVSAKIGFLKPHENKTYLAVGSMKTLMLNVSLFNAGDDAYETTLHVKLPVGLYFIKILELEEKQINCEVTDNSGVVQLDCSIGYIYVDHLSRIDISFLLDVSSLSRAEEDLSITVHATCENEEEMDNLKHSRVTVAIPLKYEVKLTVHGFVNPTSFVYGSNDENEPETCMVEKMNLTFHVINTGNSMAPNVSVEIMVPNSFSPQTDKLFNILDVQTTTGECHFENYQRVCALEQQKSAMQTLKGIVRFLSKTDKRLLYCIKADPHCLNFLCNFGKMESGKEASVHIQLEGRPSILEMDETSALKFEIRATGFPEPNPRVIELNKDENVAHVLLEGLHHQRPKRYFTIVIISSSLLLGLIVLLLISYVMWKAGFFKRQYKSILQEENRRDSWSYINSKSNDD
Sequence (P05556 21-798): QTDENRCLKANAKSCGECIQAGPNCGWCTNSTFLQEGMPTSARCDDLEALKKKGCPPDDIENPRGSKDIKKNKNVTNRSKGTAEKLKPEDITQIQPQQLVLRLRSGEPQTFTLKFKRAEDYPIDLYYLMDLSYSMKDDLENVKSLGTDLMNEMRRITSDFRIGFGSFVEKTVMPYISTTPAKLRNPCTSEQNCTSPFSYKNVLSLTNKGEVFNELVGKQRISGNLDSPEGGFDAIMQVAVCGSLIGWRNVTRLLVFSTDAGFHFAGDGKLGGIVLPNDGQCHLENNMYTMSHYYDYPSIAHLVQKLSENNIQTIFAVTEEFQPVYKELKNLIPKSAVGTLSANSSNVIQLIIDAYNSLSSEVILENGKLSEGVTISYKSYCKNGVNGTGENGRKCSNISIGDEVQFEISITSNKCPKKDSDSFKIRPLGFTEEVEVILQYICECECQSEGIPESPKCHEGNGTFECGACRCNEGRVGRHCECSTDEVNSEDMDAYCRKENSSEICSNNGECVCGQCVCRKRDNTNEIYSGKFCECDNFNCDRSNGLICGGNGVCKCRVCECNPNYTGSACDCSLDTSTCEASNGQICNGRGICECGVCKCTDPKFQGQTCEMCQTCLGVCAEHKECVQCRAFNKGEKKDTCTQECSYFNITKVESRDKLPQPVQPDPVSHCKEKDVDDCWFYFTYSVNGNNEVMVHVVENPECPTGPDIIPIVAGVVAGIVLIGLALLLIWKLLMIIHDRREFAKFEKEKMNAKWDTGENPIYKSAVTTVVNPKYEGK
Assay: In vitro evaluation: inhibition of binding of CHO cells expressing hα4 and β1 integrins to Eu3+-hVCAM-1 D1D7-IgG
Conditions: ligand Eu3+-hVCAM-1 D1D7-IgG 2 nM, Ki calculated from IC50
pKi: −log10 of the molar value.

Smiles Repr: O=C(O)CCc1cnc([C@@H]2C[C@H](N3CCCCC3)CN2C(=O)Cc2cc(Cl)c(NC(=O)c3csc4ccccc34)cc2F)s1
pKi: 9.03

Smiles Repr: O=C(O)CCc1cnc([C@@H]2C[C@H](N3CCN(CC(F)(F)F)CC3)CN2C(=O)Cc2cc(Cl)c(NC(=O)c3coc4ccccc34)cc2F)s1
pKi: 8.80

Smiles Repr: CCO[C@H]1CCN(C(=O)Cc2cc(Cl)c(NC(=O)c3csc4ccccc34)cc2Cl)[C@@H]1c1ncc(CCC(=O)O)o1
pKi: 8.11

====

Reported Dispersibility in Japanese Pharmacopoeia Second Solution values are given for each entry in this list.
Test: Dispersibility test in Japanese Pharmacopoeia First and Second Solution
Type: physicochemical
Conditions: JP2, pH 6.8
Property Label: Dispersibility in Japanese Pharmacopoeia Second Solution (µg/mL)

Smiles Repr: CCOC1CN([C@H]2C[C@@H](c3ncc(CCC(=O)O)s3)N(C(=O)Cc3cc(Cl)c(NC(=O)c4csc5ccccc45)cc3F)C2)C1
Endpoint Unit: µg/mL
Numeric Readout: 940

Smiles Repr: O=C(O)CCc1cnc([C@@H]2[C@@H](O)CCN2C(=O)Cc2cc(Cl)c(Nc3nc4ccccc4s3)cc2F)s1
Endpoint Unit: µg/mL
Numeric Readout: 760

Smiles Repr: O=C(O)CCc1cnc([C@@H]2[C@@H](O)CCN2C(=O)Cc2cc(Cl)c(Nc3nc4ccccc4s3)cc2Cl)s1
Endpoint Unit: µg/mL
Numeric Readout: 780

Smiles Repr: CCOC1CN([C@H]2C[C@@H](c3ncc(CCC(=O)O)s3)N(C(=O)Cc3cc(Cl)c(NC(=O)c4cn(C)c5ccccc45)cc3F)C2)C1
Endpoint Unit: µg/mL
Numeric Readout: 940

Smiles Repr: CO[C@H]1C[C@@H](c2ncc(CCC(=O)O)s2)N(C(=O)Cc2cc(Cl)c(Nc3nc4cc(F)ccc4s3)cc2F)C1
Endpoint Unit: µg/mL
Numeric Readout: 770

Smiles Repr: CCOC1CN([C@H]2C[C@@H](c3ncc(CCC(=O)O)s3)N(C(=O)Cc3cc(Cl)c(NC(=O)c4csc5ccccc45)cc3Cl)C2)C1
Endpoint Unit: µg/mL
Numeric Readout: 960

====

Reported Dispersibility in Japanese Pharmacopoeia Second Solution values are given for each entry in this list.
Test: Dispersibility test in Japanese Pharmacopoeia First and Second Solution
Assay type: physicochemical
Conditions: JP2, pH 6.8
Property Label: Dispersibility in Japanese Pharmacopoeia Second Solution

Compound: COC1CN([C@H]2C[C@@H](c3ncc(CCC(=O)O)s3)N(C(=O)Cc3cc(Cl)c(NC(=O)c4cn(C)c5ccccc45)cc3Cl)C2)C1 [Example 64]
Result: 1000 µg/mL

Compound: Cn1cc(C(=O)Nc2cc(Cl)c(CC(=O)N3C[C@@H](N4CCCCC4)C[C@H]3c3ncc(CCC(=O)O)s3)cc2Cl)c2ccccc21 [Example 46]
Result: 570 µg/mL

Compound: O=C(O)CCc1cnc([C@@H]2C[C@H](N3CCN(CC(F)(F)F)CC3)CN2C(=O)Cc2cc(Cl)c(NC(=O)c3csc4ccccc34)cc2Cl)s1 [Example 82]
Result: 320 µg/mL

Compound: C[C@@H]1CN([C@H]2C[C@@H](c3ncc(CCC(=O)O)s3)N(C(=O)Cc3cc(Cl)c(NC(=O)c4cn(C)c5ccccc45)cc3F)C2)C[C@H](C)O1 [Example 85]
Result: 1300 µg/mL

Compound: O=C(O)CCc1cnc([C@@H]2C[C@H](N3CCC(F)(F)CC3)CN2C(=O)Cc2cc(Cl)c(NC(=O)c3csc4ccccc34)cc2F)s1 [Example 75]
Result: 160 µg/mL

Compound: O=C(O)CCc1cnc([C@@H]2C[C@H](N3CCCCC3)CN2C(=O)Cc2cc(Cl)c(NC(=O)c3csc4ccccc34)cc2F)s1 [Example 47]
Result: 510 µg/mL

Compound: CO[C@H]1C[C@@H](c2ncc(CCC(=O)O)s2)N(C(=O)Cc2cc(Cl)c(Nc3nc4ccccc4o3)cc2Cl)C1 [Example 109]
Result: 750 µg/mL

Compound: Cn1cc(C(=O)Nc2cc(F)c(CC(=O)N3C[C@@H](N4CCN(CC(F)(F)F)CC4)C[C@H]3c3ncc(CCC(=O)O)s3)cc2Cl)c2ccccc21 [Example 79]
Result: 670 µg/mL

Compound: COC1CN([C@H]2C[C@@H](c3ncc(CCC(=O)O)s3)N(C(=O)Cc3cc(Cl)c(NC(=O)c4coc5ccccc45)cc3F)C2)C1 [Example 67]
Result: 1000 µg/mL

Compound: O=C(O)CCc1cnc([C@@H]2C[C@H](N3CCC(F)(F)CC3)CN2C(=O)Cc2cc(Cl)c(NC(=O)c3csc4ccccc34)cc2Cl)s1 [Example 76]
Result: 83 µg/mL

Compound: O=C(O)CCc1cnc([C@@H]2C[C@H](N3CCN(CC(F)(F)F)CC3)CN2C(=O)Cc2cc(Cl)c(NC(=O)c3coc4ccccc34)cc2F)s1 [Example 83]
Result: 1000 µg/mL

Compound: C[C@@H]1CN([C@H]2C[C@@H](c3ncc(CCC(=O)O)s3)N(C(=O)Cc3cc(Cl)c(NC(=O)c4coc5ccccc45)cc3F)C2)C[C@H](C)O1 [Example 89]
Result: 1300 µg/mL

====

Reported Ki values are given for each entry in this list.
Target: hα4 and β1 integrins (VLA-4) (Homo sapiens, UniProt P05556+P13612)
Assay: In vitro evaluation: inhibition of binding of CHO cells expressing hα4 and β1 integrins to Eu3+-hVCAM-1 D1D7-IgG
Conditions: ligand Eu3+-hVCAM-1 D1D7-IgG 2 nM, Ki calculated from IC50
Property Label: Ki (nM)

Smiles Repr: Cn1cc(C(=O)Nc2cc(F)c(CC(=O)N3CCC[C@H]3c3ncc(CCC(=O)O)s3)cc2Cl)c2ccccc21
Property Label: Ki
Endpoint Unit: nM
Numeric Readout: 1.2
--
Smiles Repr: O=C(O)CCc1cnc([C@@H]2C[C@H](OC3CCC3)CN2C(=O)Cc2cc(Cl)c(NC(=O)c3csc4ccccc34)cc2F)s1
Property Label: Ki
Endpoint Unit: nM
Numeric Readout: 2.2
--
Smiles Repr: CCO[C@H]1CCN(C(=O)Cc2cc(Cl)c(NC(=O)c3cn(C)c4ccccc34)cc2F)[C@@H]1c1ncc(CCC(=O)O)o1
Property Label: Ki
Endpoint Unit: nM
Numeric Readout: 9.2
--
Smiles Repr: CO[C@H]1C[C@@H](c2cc(CCC(=O)O)on2)N(C(=O)Cc2cc(Cl)c(NC(=O)c3csc4ccccc34)cc2Cl)C1
Property Label: Ki
Endpoint Unit: nM
Numeric Readout: 2.1
--
Smiles Repr: Cn1cc(C(=O)Nc2cc(Cl)c(CC(=O)N3C[C@@H](N4CCN(CC(F)(F)F)CC4)C[C@H]3c3ncc(CCC(=O)O)s3)cc2Cl)c2ccccc21
Property Label: Ki
Endpoint Unit: nM
Numeric Readout: 2
--
Smiles Repr: CCO[C@H]1CCN(C(=O)Cc2cc(Cl)c(NC(=O)c3cn(C)c4ccccc34)cc2F)[C@@H]1c1ncc(CCC(=O)O)s1
Property Label: Ki
Endpoint Unit: nM
Numeric Readout: 4.1
--
Smiles Repr: Cn1cc(C(=O)Nc2cc(F)c(CC(=O)N3C[C@@H](N4CCN(CC(F)(F)F)CC4)C[C@H]3c3ncc(CCC(=O)O)s3)cc2Cl)c2ccccc21
Property Label: Ki
Endpoint Unit: nM
Numeric Readout: 1.5
--
Smiles Repr: CCO[C@H]1CCN(C(=O)Cc2ccc3nc(Nc4cc(F)ccc4OC)oc3c2F)[C@@H]1c1ncc(CCC(=O)O)o1
Property Label: Ki
Endpoint Unit: nM
Numeric Readout: 11
--
Smiles Repr: O=C(O)CCc1cnc([C@@H]2[C@@H](O)CCN2C(=O)Cc2cc(Cl)c(NC(=O)c3csc4ccccc34)cc2F)s1
Property Label: Ki
Endpoint Unit: nM
Numeric Readout: 1.6
--
Smiles Repr: CC(C)O[C@H]1C[C@@H](c2ncc(CCC(=O)O)s2)N(C(=O)Cc2cc(Cl)c(NC(=O)c3coc4ccccc34)cc2F)C1
Property Label: Ki
Endpoint Unit: nM
Numeric Readout: 3.3
--
Smiles Repr: CO[C@H]1C[C@@H](c2cc(CCC(=O)O)on2)N(C(=O)Cc2cc(Cl)c(NC(=O)c3cn(C)c4ccccc34)cc2Cl)C1
Property Label: Ki
Endpoint Unit: nM
Numeric Readout: 5.8
--
Smiles Repr: COC[C@@H]1CC[C@@H](c2ncc(CCC(=O)O)s2)N1C(=O)Cc1cc(Cl)c(NC(=O)c2coc3ccccc23)cc1F
Property Label: Ki
Endpoint Unit: nM
Numeric Readout: 66
--
Smiles Repr: COC[C@@H]1CC[C@@H](c2ncc(CCC(=O)O)s2)N1C(=O)Cc1ccc2nc(Nc3cc(F)ccc3C)oc2c1F
Property Label: Ki
Endpoint Unit: nM
Numeric Readout: 4.4
